experiment: STAT1 signaling activators, primary screen, cell-based, HTS, luciferase reporter (AID 932); conditions: NIH 3T3 STAT1-luciferase reporter, IFN-gamma, luminescence; at 5.5 µM; stronger effect = higher value; 100% = IFN-gamma alone, no compound;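 also: raw ratio to IFN-gamma control signal so 100% means no change and 0% no light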
Hit rate of the full screen: of about 200,000 compounds, about 5,100 (2.5%) were called active. This excerpt belongs to a sample that is enriched for actives.
reported_endpoint: activation (% of control) (%)

O=C(Cc1cccs1)Nc1nnc(C2CC2)s1 = 90.1
CCCCn1c(=O)c(C(C)=O)c(O)c2ccccc21 = 95.7
CCOC(=O)c1ccc(NC(=O)c2cc(=O)[nH]c3ccccc23)cc1 = 102
S=C(NCCc1ccccc1)N1CCCCC1 = 122
CCN(CCn1cccn1)C(=O)CC1C(=O)NCCN1Cc1cccc(OC)c1OC (stereo not given) = 96.3
Fc1cc(F)c2nc(N3CCOCC3)sc2c1 = 122
CCOC(=O)c1cc2c(=O)n3ccccc3nc2n(CC(C)C)c1=NC(=O)c1c(-c2c(F)cccc2Cl)noc1C = 89.8
COc1ccc(N2CCN(C(=O)/C(C#N)=C/c3ccccc3)CC2)cc1 = 105
CCc1ccc(C2C(C#N)=C(N)N(N(C)C)C3=C2C(=O)CCC3)s1 (stereo not given) = 105
O=C(/C=C/c1ccc(N2CCOCC2)cc1)c1ccccc1 = 129
CC1CCN(C(=S)c2ccc(-c3ccc(Cl)cc3Cl)o2)CC1 = 85.7
Cc1occc1C(=O)Nc1nnc(C2CCCCC2)s1 = 107
COc1ccc(C2Nc3ccccc3C(=O)N2c2ccc(Cl)cc2)cc1Cn1cc([N+](=O)[O-])cn1 (stereo not given) = 181
COC(=O)c1ccc(CN2CCN(CCCc3ccccc3)C(CCO)C2)cc1 (stereo not given) = 96.7
Cc1ccc(S(=O)(=O)N2CCC(C(=O)NCC3CCCO3)CC2)cc1 (stereo not given) = 99.9
Cc1nnnn1/C(=C\c1ccccc1)C(=O)OCC(=O)N1CC2(C)CC1CC(C)(C)C2 (stereo not given) = 99.2
CCOC(=O)/C(C#N)=C/c1ccc(N2CCN(Cc3ccccc3)CC2)cc1 = 107
COC(=O)C1=C(C(=O)OC)C(c2cc([N+](=O)[O-])ccc2O)c2sc(=O)[nH]c2S1 (stereo not given) = 98.4
CCCC/C(C)=N/NC(=O)NC1CCCCC1 = 102
Cc1ccc(NC(=O)c2cc(-c3ccc(C)o3)nc3ccccc23)nc1 = 91.3
COC(=O)c1nc2ccccc2s1 = 103
CC(C)(C)NC(=O)NC(=O)COC(=O)C1(C)CC1(Cl)Cl (stereo not given) = 104
CCN(CC)C(=O)CSc1nc2ccccc2o1 = 110
CC(=O)Nc1ccc(CN2CCN(Cc3ccc(F)c(F)c3)C(CCO)C2)cc1 (stereo not given) = 100
COc1ccc(C2CC(c3cccs3)Nc3nnnn32)cc1 (stereo not given) = 87.6
Cc1cccc(NC(=S)N(CCN(C)C)C(C)c2ccco2)c1 (stereo not given) = 97.6
Cc1nc(N2CCCCC2)sc1C=O = 96.9
Cc1ccc(-c2csc(NNC(=O)c3ccccc3)n2)cc1 = 102
O=C(/C=C/c1ccccc1)c1ccoc1 = 98
Brc1ccc2nc(N3CCCC3)sc2c1 = 134
CN(C)Cc1ccc(F)cc1Sc1cc(Cl)ccc1Cl = 98.7
CCN(c1ccc(NC(=O)COC(=O)CCc2nc3ccccc3n2-c2ccccc2)cc1)C(C)C = 99.5
COc1ccc2nc(/N=C(\N)NC(=O)Nc3ccccc3)nc(C)c2c1 = 104
Fc1ccc2nc(N3CCCCC3)sc2c1 = 147
O=C(Nc1ccc(C(=O)O)cc1)/C(=C/c1ccc([N+](=O)[O-])cc1)NC(=O)c1ccccc1 = 94.6
O=C(c1cccs1)n1nc(NCc2ccccc2)nc1NCc1ccccc1 = 107
CCn1c(/C=C/c2ccc([N+](=O)[O-])o2)nc2ccccc2c1=O = 182
Cc1ccc(NC(=O)Cn2c(=O)n(CCC(=O)NC3CCN(Cc4ccccc4)CC3)c(=O)c3ccccc32)cc1 = 101
O=C(Nc1ccc2nccnc2c1)c1ccco1 = 127
CC(C)(C)C1CCC(=NNC(=O)c2cc(-c3ccccc3)n[nH]2)CC1 (stereo not given) = 113
COc1ccc(/C=N/NC(=O)CNC(=O)c2ccc(S(=O)(=O)N3CCCC3)cc2)c(OC)c1 = 99.5
COc1cc(C(=O)N2C(=O)c3cccc(N)c3C2=O)cc(OC)c1OC = 104
O=C(Nc1ccc(F)c([N+](=O)[O-])c1)C1CC(=O)N(Cc2ccccc2)C1 (stereo not given) = 95.9
COc1ccc(C2Nc3ccccc3C(=O)N2Cc2ccccc2)cc1Cn1nnc2ccccc21 (stereo not given) = 101
Cc1ccc(/C=N/NC(=O)CSc2nc3ccccc3o2)cc1 = 111
